Protocol notes: probe aCHRDL2 binding to arrayed compounds – biochemical, biotinylated probe, 635/667 nm fluorescence, primary screen (AID 1100)
Study conditions: small-molecule microarray, higher = more signal
The following compounds are shown together with reported composite z-score values.

Compound	composite z-score
NC(=O)NCC#Cc1ccc2c(c1)[C@]1(C(=O)N2)[C@H](C(=O)NC[C@H](O)c2ccccc2)[C@H]2C(=O)O[C@H](c3ccccc3)[C@H](c3ccccc3)N2[C@@H]1c1ccccc1OCCO	0.729
[N-]=[N+]=NCc1ccccc1[C@H]1OC(c2ccc(OCCCO)cc2)=N[C@@]1(Cc1ccccc1)C(=O)NCC(O)CO (some centres undefined)	1.21
COC(=O)[C@@]1(Cc2ccc(OC)cc2)[C@H]2c3cc(C(=O)N(C)C)n(Cc4ccc(OC)c(OC)c4)c3C[C@H]2CN1C(=O)c1ccccc1	1.16
O=C1C2C=CC(C(O)CCc3ccccc3)N(Nc3ccccc3)C2C(=O)N1c1ccccc1 (centres undefined)	1.29
